ASSAY PROCEDURE: Toxicity liver stage against HepG2, at 10uM
Format: cell-based
Parameters: test concentration 10 uM, cell line HepG2-A16-CD81EGFP
STUDY CONDITIONS: human, HepG2-A16-CD81EGFP cells; read-out: INHIBITION
Overview of recorded cytotoxicity at 10 µM for various molecules
Your reply should be a number followed by the unit it is expressed in.

Take a look at these entries with their results.
CN(Cc1cnn(C)c1)C1CCCN(Cc2noc(C3CC3)n2)C1 (centres undefined); -8.44%
CCc1ccccc1Nc1noc2c1CN(C(=O)C1CCCO1)CC2 (centres undefined); -9.9%
FC(F)(F)c1ccnc(N2C[C@H]3CCN(c4cccnc4)C[C@H]3C2)n1; 6.88%
CCN(CC)S(=O)(=O)N1CCCC1c1nnc2n1CCCCC2 (centres undefined); -6.83%
Cc1cc(C(=O)NCCN2CCCC(C)C2)nn1C(C)(C)C (centres undefined); 9.34%
Cc1cnn(CC2CCCN2CC(=O)N(C)Cc2cnn(C)c2)c1 (centres undefined); 8.92%
CSC1=Nc2c(cnn2-c2ccc(C)cc2)C2=NCCCN12; 10.3%
N#Cc1ccnc(N2CCN(CC(O)c3cc(F)ccc3F)CC2)c1 (centres undefined); 1.31%
Cc1cc2n(n1)CC(CNCc1ccc(-n3cccn3)cc1)CN2 (centres undefined); -2.95%
COCCN1CC(C(=O)NCc2ccnc(-n3cccn3)c2)CC1=O (centres undefined); -5.07%

Data request, read-out cytotoxicity at 10 µM, for `CCC(C)(C)NC(=O)CSCc1ccc(S(=O)(=O)N(C)C)o1`
5.94%

// cytotoxicity at 10 µM lookup, key: N#Cc1ccc(Cl)cc1NCC1CCOC1 (centres undefined)
3.09%

What cytotoxicity at 10 µM value was documented for this molecule, `CCN(C)S(=O)(=O)NCC1CCN(Cc2ccccc2C)CC1` ?
-4.93%

Look up cytotoxicity at 10 µM: `NS(=O)(=O)N1CCc2ccc(NC(=O)CCc3ccncc3)cc21`
2.68%

* * *

ASSAY PROCEDURE: Toxicity liver stage against HepG2, at 10uM
Assay type: cell-based
Set-up: test concentration 10 uM, cell line HepG2-A16-CD81EGFP
STUDY CONDITIONS: human, HepG2-A16-CD81EGFP cells; read-out: INHIBITION
MEASUREMENT KIND: cytotoxicity at 10 µM (%)
Give the number; % is assumed, so skip it.

Consider the reported cytotoxicity at 10 µM for these compounds:
O=C(c1cccc(-n2cnnn2)c1)N1CCC2(CC1)OCCO2; -126
CC(CC(F)(F)F)NCc1ccccc1-n1ccnc1 (stereo not given); 3.15
Cc1cc(NC(=O)CN2CCc3cnc(C)nc3C2)on1; -5.33
CNC(=O)c1ccc(C(=O)N2CCCC(n3cc(C)cn3)C2)cn1 (stereo not given); -0.884
CC(C)c1n[nH]c(C2CN(C(=O)COc3ccc(F)cc3)CCO2)n1 (stereo not given); -5.7
CCn1ccnc1CNCC1CCCN1c1cccnn1 (stereo not given); -1.28
NC(=O)c1cc(C2CC2)nc2ccc(F)cc12; 3.87
CC(C)(C)C(CCO)NC(=O)Nc1ccncc1 (stereo not given); -3.28
Cc1ccc(C(=O)Nc2ccc(N(C)C)cn2)n1C; -2.48
COCCN(Cc1nc2c(cnn2C)c(=O)[nH]1)C(C)c1ccccc1 (stereo not given); -1.47

What cytotoxicity at 10 µM value was documented for this compound, `OC1CCN(c2nc(-c3ccccc3)no2)CC1` ?
-9.57

Reported cytotoxicity at 10 µM for Cc1sc2nc(CCN)nc(N(C)CCCC3CCCO3)c2c1C (stereo not given) : what is it?
-6.01

Find the recorded cytotoxicity at 10 µM belonging to `Cc1cccc2c1ccn2CCC(=O)O` and report it.
7.47

Dear colleague, I am looking for the recorded cytotoxicity at 10 µM of the following compound: CC(C)c1ccc(S(=O)(=O)NC2CCN(CC(F)(F)F)C2)cc1 (stereo not given)
9.19

Given `O=C(c1cccn1Cc1cccs1)N1CCN(C(=O)C2CC2)CC1` , state its recorded cytotoxicity at 10 µM.
-6.59

Can you share its cytotoxicity at 10 µM? I mean this compound: `CN(C)CCCN(Cc1cnn(C)c1)Cc1ccco1`
2.36

Report cytotoxicity at 10 µM for CCc1nccn1C1CCCN(C(=O)c2ccc(NC3CC3)nc2)C1 (stereo not given) please.
-11.3

// cytotoxicity at 10 µM lookup, key: Cc1cnn(CC(C)NCc2cccnc2)c1 (stereo not given)
-3.3

Report cytotoxicity at 10 µM for COc1ccc(CN2CC(O)CN(C(=O)C3CCC3)CC2=O)cc1 (stereo not given) please.
-12.8

Form field: reported cytotoxicity at 10 µM of `O=C(NCCN1CCOC1=O)c1ccc2sccc2c1`
12.9

# credit: ChEMBL document CHEMBL4513216
